Tested on: TCC sup
Test: Cell anti-proliferative effect (MTT test)
Type: cell-based
Details: Homo sapiens, TCC-SUP, 48 h, read-out: EC50 antiproliferative effect
RECORDED_ENDPOINT: pEC50
Numbers only, as −log10 of the molar value.

Data request: Please look up its pEC50: "Cc1ccc(-c2cc(C(F)(F)F)nn2-c2ccc(S(N)(=O)=O)cc2)cc1"
Data returned: 4.80

###

Molecular target: UniProt P08183
Assay: Drug transport experiment, Caco-2 monolayer apparent permeability
Format: in vitro ADME
Details: human; Caco-2 monolayer, apical-basolateral flux, 120 min
RECORDED_ENDPOINT: Papp A→B at 120 min, 100 µM (×10⁻⁶ cm/s)
Give bare numbers, in ×10⁻⁶ cm/s.

Data request: Requested read-out: Papp A→B at 120 min, 100 µM. Entry: Cc1ccc(-c2cc(C(F)(F)F)nn2-c2ccc(S(N)(=O)=O)cc2)cc1 [Celecoxib, celecoxib]
Data returned: 13.7

###

Tested on: UMUC3
Assay: Cell anti-proliferative effect (MTT test)
Format: cell-based
Details: Homo sapiens, UMUC3, 48 h, read-out: EC50 antiproliferative effect
RECORDED_ENDPOINT: EC50 (µM)
One number for each entry, in µM.

Data request: Return reported EC50; argument: "Cc1ccc(-c2cc(C(F)(F)F)nn2-c2ccc(S(N)(=O)=O)cc2)cc1"
Data returned: 14.2

###

Target: BCRP (Homo sapiens, UniProt Q9UNQ0)
Sequence (Q9UNQ0 whole entry): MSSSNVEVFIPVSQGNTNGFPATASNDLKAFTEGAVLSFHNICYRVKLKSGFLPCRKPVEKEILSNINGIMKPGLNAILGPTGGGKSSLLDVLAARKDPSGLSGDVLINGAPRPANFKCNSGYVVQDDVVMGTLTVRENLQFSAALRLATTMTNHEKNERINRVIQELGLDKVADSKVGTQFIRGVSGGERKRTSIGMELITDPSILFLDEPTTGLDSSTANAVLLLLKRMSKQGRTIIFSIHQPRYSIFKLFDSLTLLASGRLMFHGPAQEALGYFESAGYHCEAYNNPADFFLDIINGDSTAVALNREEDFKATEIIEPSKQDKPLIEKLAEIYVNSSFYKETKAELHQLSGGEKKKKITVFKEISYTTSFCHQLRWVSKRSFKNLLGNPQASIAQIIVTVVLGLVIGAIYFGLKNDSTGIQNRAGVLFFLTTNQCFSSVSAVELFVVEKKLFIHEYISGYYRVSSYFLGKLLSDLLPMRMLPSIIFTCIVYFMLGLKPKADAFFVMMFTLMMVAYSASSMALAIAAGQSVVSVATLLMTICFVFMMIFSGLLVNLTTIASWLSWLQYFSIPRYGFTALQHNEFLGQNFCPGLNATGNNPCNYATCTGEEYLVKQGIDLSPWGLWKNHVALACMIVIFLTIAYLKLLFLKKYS
Test: cell-based
RECORDED_ENDPOINT: pEC50
Answers are plain numbers, as −log10 of the molar value.

Data request: Given "Cc1ccc(-c2cc(C(F)(F)F)nn2-c2ccc(S(N)(=O)=O)cc2)cc1" , state its recorded pEC50.
Data returned: 4.62

###

Target: P-gp (Homo sapiens, UniProt P08183)
Sequence (P08183 whole entry): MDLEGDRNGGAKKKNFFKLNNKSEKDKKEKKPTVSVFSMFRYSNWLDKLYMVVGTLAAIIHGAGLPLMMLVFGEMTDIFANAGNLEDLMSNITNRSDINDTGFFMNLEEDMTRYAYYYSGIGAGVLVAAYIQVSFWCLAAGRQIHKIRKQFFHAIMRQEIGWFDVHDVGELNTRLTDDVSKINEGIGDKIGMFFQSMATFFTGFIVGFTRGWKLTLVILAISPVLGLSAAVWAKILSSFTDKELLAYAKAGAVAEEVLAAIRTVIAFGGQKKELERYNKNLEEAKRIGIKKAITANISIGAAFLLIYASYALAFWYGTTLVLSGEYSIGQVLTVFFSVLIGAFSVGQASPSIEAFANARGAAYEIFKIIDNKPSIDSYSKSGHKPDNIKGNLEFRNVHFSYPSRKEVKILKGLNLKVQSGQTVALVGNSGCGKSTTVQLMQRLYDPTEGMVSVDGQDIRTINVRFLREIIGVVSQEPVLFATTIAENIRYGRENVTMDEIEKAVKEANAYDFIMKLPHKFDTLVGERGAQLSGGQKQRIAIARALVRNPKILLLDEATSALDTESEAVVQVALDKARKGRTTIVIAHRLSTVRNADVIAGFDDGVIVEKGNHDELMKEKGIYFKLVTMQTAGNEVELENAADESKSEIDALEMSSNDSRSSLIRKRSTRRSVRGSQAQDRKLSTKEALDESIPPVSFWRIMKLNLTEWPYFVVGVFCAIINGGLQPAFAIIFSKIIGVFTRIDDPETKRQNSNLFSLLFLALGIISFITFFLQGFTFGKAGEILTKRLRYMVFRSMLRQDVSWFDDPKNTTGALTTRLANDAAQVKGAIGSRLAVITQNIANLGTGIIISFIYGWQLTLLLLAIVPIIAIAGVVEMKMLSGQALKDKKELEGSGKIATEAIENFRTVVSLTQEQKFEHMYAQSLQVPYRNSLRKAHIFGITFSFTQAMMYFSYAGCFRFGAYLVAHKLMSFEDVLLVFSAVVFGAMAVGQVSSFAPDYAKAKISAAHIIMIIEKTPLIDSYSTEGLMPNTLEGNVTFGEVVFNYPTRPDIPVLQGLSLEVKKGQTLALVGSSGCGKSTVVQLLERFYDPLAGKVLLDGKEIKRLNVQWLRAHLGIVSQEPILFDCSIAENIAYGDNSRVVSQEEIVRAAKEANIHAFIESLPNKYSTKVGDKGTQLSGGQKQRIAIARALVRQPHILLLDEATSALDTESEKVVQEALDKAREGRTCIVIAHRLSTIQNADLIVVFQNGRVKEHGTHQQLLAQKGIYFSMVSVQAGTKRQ
Assay: Drug transport experiment, Caco-2 monolayer apparent permeability
Assay type: in vitro ADME
Settings: human; Caco-2 monolayer, basolateral-apical flux, 120 min
RECORDED_ENDPOINT: Papp B→A at 120 min, 100 µM (×10⁻⁶ cm/s)
One number for each entry, in ×10⁻⁶ cm/s.

Data request: Lookup: Papp B→A at 120 min, 100 µM / P-gp (Homo sapiens, UniProt P08183) / "Cc1ccc(-c2cc(C(F)(F)F)nn2-c2ccc(S(N)(=O)=O)cc2)cc1"
Data returned: 103
